Every entry's value here was drawn from ChEMBL document CHEMBL3727362.

Molecular target: P2X2/P2X3 heterotrimeric receptor (Homo sapiens) (UniProt Q9UBL9+P56373)
Assay: Antagonist activity against human P2X2/3 receptor expressed in HEK293/1321N1 cells assessed as inhibition of alpha,beta-meATP/ATP-induced calcium influx at 3 uM by Fluo-4 dye based FLIPR assay
Assay type: functional, cell-based
measurement-type: inhibition

Known inhibition results, listed for orientation:
| compound | result |
| --- | --- |
| Cc1ccc(N2CCc3ncnc(NCc4cc(C(F)(F)F)ccc4Cl)c3C2)nc1 | 0% |
| Cc1ccc(N2CCc3ncnc(NCc4cccc(F)c4)c3C2)nc1 | > 75% |
| Cc1ccc(N2CCc3ncnc(NC(C)c4ccc(F)cc4)c3C2)nc1 (stereo not drawn) | > 75% |
| COc1ccc(CNc2ncnc3c2CN(c2ccc(C)cn2)CC3)cc1 | > 75% |
| Cc1ccc(N2CCc3ncnc(NCc4cc(F)ccc4F)c3C2)nc1 | 50% |
| Cc1ccc(N2CCc3ncnc(N(C)Cc4cccc(Cl)c4)c3C2)nc1 | 0% |
| Cc1ccc(N2CCc3ncnc(NCc4ccccc4OC(F)F)c3C2)nc1 | > 75% |
| Cc1ccc(N2CCc3ncnc(NCc4cccc(Cl)c4)c3C2)nc1 | > 75% |
| Cc1ccc(N2CCc3ncnc(NCc4cc(C(F)(F)F)ccc4F)c3C2)nc1 | 0% |
| Cc1ccc(N2CCc3ncnc(NCc4ccccc4Cl)c3C2)nc1 | > 75% |

# input Entry Cc1ccc(CNc2ncnc3c2CN(c2ccc(C)cn2)CC3)cc1 needs its inhibition filled in; supply it.
# output > 75%

# input Entry Cc1ccc(N2CCc3ncnc(NCc4ccc(F)c(C)c4)c3C2)nc1 needs its inhibition filled in; supply it.
# output > 75%

# input Entry COc1cccc(CCNc2ncnc3c2CN(c2ccc(C)cn2)CC3)c1 needs its inhibition filled in; supply it.
# output > 75%
